Data provenance: paper PMC12416549

binders and their reported apparent Kd (screen)
Biological target: T1, TNFR1 (Homo sapiens, UniProt P19438)
T1 chain: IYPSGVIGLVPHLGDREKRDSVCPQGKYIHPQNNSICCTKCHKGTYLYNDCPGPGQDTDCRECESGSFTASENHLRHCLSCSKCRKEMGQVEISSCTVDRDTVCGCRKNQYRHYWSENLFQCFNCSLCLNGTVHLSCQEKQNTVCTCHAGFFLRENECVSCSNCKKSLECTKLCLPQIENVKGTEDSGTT
Assay: yeast display SC50
Field format: number, assumed nM, no unit text.

binder	unit-annotation	apparent Kd (screen)
K64V (designed binder) SMEEEVEKAAKEYEKKKKEAIEKHLEKLKAKDKEAAERFLKELEEAAKEYAKDEAKTMSEEEAVRRAKKYKEKVLLSELSEEEQKEIKEAEEKLVRTILKYVEEAAK	nM	0.653
K93I (designed binder) SMEEEVEKAAKEYEKKKKEAIEKHLEKLKAKDKEAAERFLKELEEAAKEYAKDEAKTMSEEEAKRRAKKYKEKVLLSELSEEEQKEIKEAEEILVRTILKYVEEAAK	nM	1.69
F39I (designed binder) SMEEEVEKAAKEYEKKKKEAIEKHLEKLKAKDKEAAERILKELEEAAKEYAKDEAKTMSEEEAKRRAKKYKEKVLLSELSEEEQKEIKEAEEKLVRTILKYVEEAAK	nM	3.99

Okay, next one:
Q: Data request, read-out apparent Kd (screen), for K52H (designed binder) SMEEEVEKAAKEYEKKKKEAIEKHLEKLKAKDKEAAERFLKELEEAAKEYAHDEAKTMSEEEAKRRAKKYKEKVLLSELSEEEQKEIKEAEEKLVRTILKYVEEAAK
A: 0.956
